Where these numbers come from: the supplement of paper PMC10567573

Please provide measured protein stability index for the entries that follow.
B1: SMTNL2 (parent)
chain: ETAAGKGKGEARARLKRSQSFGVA

Variants of: B1
ASSAY REMARKS: protein stability index of a GFP-peptide fusion (GPS, HEK-293T) (PSI 1-6); higher = more stable;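 also: lentivirally expressed fusions sorted by FACS into six bins by GFP to DsRed ratio, PSI derived from sequencing read proportions per bin multiplied by bin number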
SETTINGS: c terminus: a fixed tail appended
Numbers only.

SEQ STRING | OBSERVED RESULT
ETAAGKGKGEARARLKISQSFGVA [R17I] | 3.82

Your task in this section: give protein stability index for each listed record.
1. ETAGGKGKGEARARLKRSQSFGVA [A4G]
2. ETAAGKGKGEARARLPRSQSFGVA [K16P]

1. 4.29
2. 4.03

Your task in this section: give protein stability index for each listed record.
1. ELAAGKGKGEARARLKRSQSFGVA [T2L]
2. ETAAGKGKGEWRARLKRSQSFGVA [A11W]
3. ETAAGKGKGEVRARLKRSQSFGVA [A11V]
4. EKAAGKGKGEARARLKRSQSFGVA [T2K]
5. ETAAGKGKFEARARLKRSQSFGVA [G9F]

1. 4.36
2. 3.65
3. 4.02
4. 4.58
5. 4.12
